assayName: AUC (0 to infinity) in CD1 mouse at 4 mg/kg, iv
Format: ADME, organism-based
Design: time infinity, dose 4 mg/kg, route intravenous
experimentalContext: plasma
measurementLabel: AUC(0-inf) (ng·h/mL)
State just the number; it will be interpreted in ng·h/mL.

AUC(0-inf) for CC(C)C[C@H](NC(=O)[C@@H](NC(=O)c1cccc(-c2ccccc2)n1)[C@@H](C)O)B(O)O ?
2910

====

Quick list: fraction unbound per entry.
assayName: Protein binding in dog plasma
Format: ADME, cell-free, Canis lupus familiaris
experimentalContext: read-out: PPB (converted)

fraction unbound for CC(C)C[C@H](NC(=O)[C@@H](NC(=O)c1cccc(-c2ccccc2)n1)[C@@H](C)O)B(O)O [DELANZOMIB] ?
0.001

fraction unbound for CC(C)C[C@H](NC(=O)[C@H](Cc1ccccc1)NC(=O)c1cnccn1)B(O)O [BORTEZOMIB] ?
0.058

====

assayName: Half life in CD1 mouse at 0.8 mg/kg, iv
Format: ADME, organism-based
Parameters: dose 0.8 mg/kg, route intravenous
experimentalContext: in vivo
measurementLabel: half-life (h)
State just the number; it will be interpreted in h.

half-life for CC(C)C[C@H](NC(=O)[C@H](Cc1ccccc1)NC(=O)c1cnccn1)B(O)O [BORTEZOMIB] ?
98

====

assayName: Volume of distribution at steady state in Sprague-Dawley rat at 0.2 mg/kg, iv
Type: ADME, organism-based
Parameters: dose 0.2 mg/kg, route intravenous
experimentalContext: in vivo, read-out: Vdss
measurementLabel: Vd (L/kg)
State just the number; it will be interpreted in L/kg.

Vd for CC(C)C[C@H](NC(=O)[C@@H](NC(=O)c1cccc(-c2ccccc2)n1)[C@@H](C)O)B(O)O ?
18.1

====

assayName: Half life in CD1 mouse at 4 mg/kg, iv
Assay type: ADME, organism-based
Design: dose 4 mg/kg, route intravenous
experimentalContext: in vivo
measurementLabel: half-life (min)
State just the number; it will be interpreted in min.

half-life for CC(C)C[C@H](NC(=O)[C@@H](NC(=O)c1cccc(-c2ccccc2)n1)[C@@H](C)O)B(O)O [DELANZOMIB] ?
900

====

assayName: Half life in Sprague-Dawley rat at 0.2 mg/kg, iv
Type: ADME, organism-based
Set-up: dose 0.2 mg/kg, route intravenous
experimentalContext: in vivo
measurementLabel: half-life (h)
State just the number; it will be interpreted in h.

half-life for CC(C)C[C@H](NC(=O)[C@@H](NC(=O)c1cccc(-c2ccccc2)n1)[C@@H](C)O)B(O)O [DELANZOMIB] ?
71

====

assayName: AUC (0 to infinity) in Sprague-Dawley rat at 0.2 mg/kg, iv
Type: ADME, organism-based
Set-up: dose 0.2 mg/kg, route intravenous, time infinity
experimentalContext: plasma
measurementLabel: AUC(0-inf) (ng·h/mL)
State just the number; it will be interpreted in ng·h/mL.

AUC(0-inf) for CC(C)C[C@H](NC(=O)[C@@H](NC(=O)c1cccc(-c2ccccc2)n1)[C@@H](C)O)B(O)O ?
1030

====

assayName: Inhibition of chymotrypsin-like activity of human 20S proteasome in Molt4 cells
Assay type: cell-based
experimentalContext: molt-4
Quick list: pEC50 per entry.
In textbook form, pEC50 equals minus log to base ten of the concentration in mol/L.

Example entries begin here.
molecule	pEC50
CC(C)C[C@H](NC(=O)[C@H](Cc1ccccc1)NC(=O)c1cnccn1)B(O)O [BORTEZOMIB]	7.68
CC(C)C[C@H](NC(=O)[C@@H](NC(=O)c1ccc2ccccc2n1)[C@@H](C)O)B(O)O	7.49
CC(C)C[C@H](NC(=O)[C@@H](NC(=O)c1csc(-c2ccccc2)n1)[C@@H](C)O)B(O)O	7.80

Read the next record carefully.
pEC50 for CC(C)C[C@H](NC(=O)[C@@H](NC(=O)c1cnc(-c2ccccc2)cn1)[C@@H](C)O)B(O)O ?
7.68

Reference for the values: ChEMBL document CHEMBL1141651
